Reference for the values: patent US7166299B2

- TEST DETAILS: Hematic levels of UDCA and glyco UDCA after oral administration of 200 mg UDCA aqueous solution to three healthy men (Example VI)
- Format: in vivo, human
- RECORDED CONDITIONS: male, human, in vivo, po, 200 mg, Cmax, individual men #1-#3
MEASURE: Cmax (ng/mL)
Hi! Could you send only the number? It should be in ng/mL, unit omitted.

Return Cmax for the following compound: C[C@H](CCC(=O)NCC(=O)O)[C@H]1CC[C@H]2[C@@H]3[C@@H](O)C[C@@H]4C[C@H](O)CC[C@]4(C)[C@H]3CC[C@]12C
1920

* * *

- TEST DETAILS: Hematic levels of UDCA and glyco UDCA after oral administration of 200 mg UDCA aqueous solution to three healthy men (Example VI)
- Format: in vivo, human
- RECORDED CONDITIONS: male, human, plasma, po, 200 mg, oral, 200 mg UDCA solution of this invention; read-out: Tmax, individual men #1-#3
MEASURE: Tmax
Write down the value, and be sure its unit follows.

Return Tmax for the following molecule: C[C@H](CCC(=O)O)[C@H]1CC[C@H]2[C@@H]3[C@@H](O)C[C@@H]4C[C@H](O)CC[C@]4(C)[C@H]3CC[C@]12C
15 min

* * *

- TEST DETAILS: Hematic levels of UDCA and glyco UDCA after oral administration of 200 mg UDCA aqueous solution to three healthy men (Example VI)
- Assay type: in vivo, human
- RECORDED CONDITIONS: male, human, plasma, po, 200 mg, 200 mg UDCA solution of this invention, 0.25 h, three men
MEASURE: concentration at 0.25 h (ng/mL)
Hi! Could you send only the number? It should be in ng/mL, unit omitted.

Return concentration at 0.25 h for the following compound: C[C@H](CCC(=O)O)[C@H]1CC[C@H]2[C@@H]3[C@@H](O)C[C@@H]4C[C@H](O)CC[C@]4(C)[C@H]3CC[C@]12C
8430

* * *

- TEST DETAILS: Hematic levels of UDCA and glyco UDCA after oral administration of 200 mg UDCA aqueous solution to three healthy men (Example VI)
- Assay type: in vivo, human
- RECORDED CONDITIONS: male, human, serum, po, 200 mg, oral, 200 mg UDCA solution of this invention, three men; read-out: Cmax, mean
MEASURE: Cmax

Return Cmax for the following molecule: C[C@H](CCC(=O)O)[C@H]1CC[C@H]2[C@@H]3[C@@H](O)C[C@@H]4C[C@H](O)CC[C@]4(C)[C@H]3CC[C@]12C
8430 ng/mL

* * *

- TEST DETAILS: Hematic levels of UDCA and glyco UDCA after oral administration of 200 mg UDCA aqueous solution to three healthy men (Example VI)
- Format: in vivo, human
- RECORDED CONDITIONS: male, human, plasma, po, 200 mg, 200 mg UDCA solution of this invention, 1.5 h, three men
MEASURE: concentration at 1.5 h
Write down the value, and be sure its unit follows.

Return concentration at 1.5 h for the following compound: C[C@H](CCC(=O)O)[C@H]1CC[C@H]2[C@@H]3[C@@H](O)C[C@@H]4C[C@H](O)CC[C@]4(C)[C@H]3CC[C@]12C
320 ng/mL

* * *

- TEST DETAILS: Hematic levels of UDCA and glyco UDCA after oral administration of 200 mg UDCA aqueous solution to three healthy men (Example VI)
- Assay type: in vivo, human
- RECORDED CONDITIONS: male, human, plasma, po, 200 mg, oral, 200 mg UDCA solution of this invention, 3 h, three men; read-out: Plasma concentration, mean
- Procedure: The aqueous solution dosage forms, according to this invention, containing 200 mg of ursodeoxycholic acid (UDCA), were prepared according to the method described in the above-described Example III and were administered to three healthy men having normal body weight after fasting. The hematic levels of UDCA and glyco UDCA were evaluated by means of well known chemical methods. […]
MEASURE: concentration at 3 h
Write down the value, and be sure its unit follows.

Return concentration at 3 h for the following molecule: C[C@H](CCC(=O)O)[C@H]1CC[C@H]2[C@@H]3[C@@H](O)C[C@@H]4C[C@H](O)CC[C@]4(C)[C@H]3CC[C@]12C [UDCA]
170 ng/mL
